pKi: recorded values
# Target Desc: Protein-glutamine gamma-glutamyltransferase (Homo sapiens)
# Sequence (P21980 whole entry): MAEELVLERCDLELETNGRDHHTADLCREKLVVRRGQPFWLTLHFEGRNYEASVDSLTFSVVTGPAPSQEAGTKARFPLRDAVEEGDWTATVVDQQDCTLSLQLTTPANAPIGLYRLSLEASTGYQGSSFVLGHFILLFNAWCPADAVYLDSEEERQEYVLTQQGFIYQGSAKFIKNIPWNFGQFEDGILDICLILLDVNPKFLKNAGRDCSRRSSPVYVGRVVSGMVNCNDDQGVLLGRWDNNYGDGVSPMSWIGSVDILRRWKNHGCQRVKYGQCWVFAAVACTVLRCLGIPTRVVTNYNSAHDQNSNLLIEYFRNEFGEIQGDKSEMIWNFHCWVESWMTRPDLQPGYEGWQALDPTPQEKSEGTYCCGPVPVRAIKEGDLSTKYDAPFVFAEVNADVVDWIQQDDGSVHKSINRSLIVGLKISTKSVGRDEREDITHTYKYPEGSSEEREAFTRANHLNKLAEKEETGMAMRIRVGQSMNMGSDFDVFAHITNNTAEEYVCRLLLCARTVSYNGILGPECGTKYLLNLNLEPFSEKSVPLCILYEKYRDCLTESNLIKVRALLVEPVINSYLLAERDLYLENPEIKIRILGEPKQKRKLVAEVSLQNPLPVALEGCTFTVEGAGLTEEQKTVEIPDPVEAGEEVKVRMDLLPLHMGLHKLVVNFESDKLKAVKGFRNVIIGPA
# Protocol Notes: Irreversible inhibition of recombinant human TG2 expressed in Escherichia coli BL21 assessed as inhibition constant using AL5 as substrate by continuous chromogenic assay
pKi: −log10 of the molar value.
Quantity: pKi

C=CC(=O)NCCCC[C@H](NC(=O)OCc1ccccc1)C(=O)N1CCN(C(=O)[C@H](C)NC(=O)c2cccc3ccccc23)CC1 | 5.64
C=CC(=O)NCCCC[C@H](NC(=O)Cc1ccccc1Cl)C(=O)N1CCN(C(=O)[C@H](C)NC(=O)c2cccc3ccccc23)CC1 | 5.03
C=CC(=O)NCCCC[C@H](NC(=O)Cc1ccccc1Br)C(=O)N1CCN(C(=O)[C@H](Cc2ccccc2)NC(=O)c2cccc3ccccc23)CC1 | 5.89
C=CC(=O)NCCCC[C@H](NC(=O)Cc1ccccc1OC)C(=O)N1CCN(C(=O)[C@H](C)NC(=O)c2cccc3ccccc23)CC1 | 5.22
C=CC(=O)NCCCC[C@H](NC(=O)OCc1ccccc1)C(=O)N1CCN(C(=O)[C@H](NC(=O)c2cccc3ccccc23)C(C)C)CC1 | 5.89
C=CC(=O)NCCCC[C@H](NC(=O)OCc1ccccc1)C(=O)N1CCN(C(=O)[C@@H](Cc2ccccc2)NC(=O)c2cccc3ccccc23)CC1 | 6.00
C=CC(=O)NCCCC[C@H](NC(=O)OCc1ccccc1)C(=O)N1CCN(C(=O)[C@@H](NC(=O)c2cccc3ccccc23)C(C)C)CC1 | 5.54
C=CC(=O)NCCCC[C@H](NC(=O)OCc1ccccc1)C(=O)N1CCN(C(=O)[C@@H](NC(=O)c2cccc3ccccc23)C(C)CC)CC1 (some centres undefined) | 5.09
C=CC(=O)NCCCC[C@H](NC(=O)Cc1ccccc1Br)C(=O)N1CCN(C(=O)[C@H](C)NC(=O)c2cccc3ccccc23)CC1 | 5.01
C=CC(=O)NCCCC[C@H](NC(=O)OCc1ccccc1)C(=O)N1CCN(C(=O)[C@@H](C)NC(=O)c2cccc3ccccc23)CC1 | 5.89
C=CC(=O)NCCCC[C@H](NC(=O)OCc1ccccc1)C(=O)NCC(=O)N1CCN(C(=O)c2cccc3ccccc23)CC1 | 5.64
C=CC(=O)NCCCC[C@H](NC(=O)Cc1ccccc1C)C(=O)N1CCN(C(=O)[C@H](C)NC(=O)c2cccc3ccccc23)CC1 | 5.02
C=CC(=O)NCCCC[C@H](NC(=O)OCc1ccccc1)C(=O)N1CCN(C(=O)[C@H](Cc2ccccc2)NC(=O)c2cccc3ccccc23)CC1 | 5.68
C=CC(=O)NCCCC[C@H](NC(=O)OCc1ccccc1)C(=O)N1CCN(C(=O)CNC(=O)c2cccc3ccccc23)CC1 | 6.52

* * *

# Target Desc: UniProt P21980
# Protocol Notes: Irreversible inhibition of recombinant human TG2 expressed in Escherichia coli BL21 assessed as Kinact using AL5 as substrate by continuous chromogenic assay
Consider the cut-off 0.8 min⁻¹. If the recorded Kinact is strictly smaller, the label is yes; if not, the label is no.

C=CC(=O)NCCCC[C@H](NC(=O)Cc1ccccc1C)C(=O)N1CCN(C(=O)[C@H](Cc2ccccc2)NC(=O)c2cccc3ccccc23)CC1 | no
C=CC(=O)NCCCC[C@H](NC(=O)OCc1ccccc1)C(=O)N1CCN(C(=O)[C@@H](C)NC(=O)c2cccc3ccccc23)CC1 | yes
C=CC(=O)NCCCC[C@H](NC(=O)OCc1ccccc1)C(=O)N1CCN(C(=O)CNC(=O)c2cccc3ccccc23)CC1 | yes
C=CC(=O)NCCCC[C@H](NC(=O)OCc1ccccc1)C(=O)NCC(=O)N1CCN(C(=O)c2cccc3ccccc23)CC1 | yes
C=CC(=O)NCCCC[C@H](NC(=O)OCc1ccccc1)C(=O)N1CCN(C(=O)[C@H](NC(=O)c2cccc3ccccc23)C(C)C)CC1 | yes

Provenance of the data: ChEMBL document CHEMBL5230179
